FYI, the data here is from the supplement of paper PMC8047044.

system: Neuro-2a; experiment: neurite formation score, plate-normalized to DMSO control mean 5.04 (score (0-8 scale)); higher = more or longer neurites; conditions: 0.1 µM
In this scheme, each record receives a class according to its neurite formation score; the ranges are group 1 (below 4), group 2 (4 to below 5), group 3 (5 or more)

Classify this compound: `O=C(NC[C@H](O)CO)c1ccncc1Nc1ccc(I)cc1F` group 3

* * *

tested on: Neuro-2a; assay: neurite formation score, plate-normalized to DMSO control mean 5.04 (score (0-8 scale)); higher = more or longer neurites; conditions: 0.1 µM
Quantity Measured: neurite formation score
Respond numerically, and do not add a unit to the figure.

Cc1cc(Nc2nc(N[C@@H](C)c3ncc(F)cn3)ncc2Cl)[nH]n1    3.09
COc1cc(N2CCC(N(C)C)CC2)ccc1Nc1ncc(Cl)c(Nc2ccccc2P(C)(C)=O)n1    4.38
CC(C)CC(=O)Nc1n[nH]c2c1CN(C(=O)C1CCN(C)CC1)C2(C)C    4.54
COc1cc2ncnc(Oc3cccc(NC(=O)Nc4cc(C(C)(C)C(F)(F)F)on4)c3)c2cc1OC    4.71
O=C(NOCC1CC1)c1ccc(F)c(F)c1Nc1ccc(I)cc1Cl    4.71
Nc1nc(Nc2ccc(S(N)(=O)=O)cc2)nn1C(=O)c1c(F)cccc1F    5.58

Measured neurite formation score, `Nc1cccc(-c2cc3c(Oc4cccc(O)c4)ncnc3[nH]2)c1` : 3.75

Form field neurite formation score, entry `Cn1c(=O)c(F)c(Nc2ccc(I)cc2F)c2c(=O)n(C[C@@H](O)CO)cnc21` : 4.42

Per the record, `Cc1[nH]c(/C=C2\C(=O)Nc3ccc(S(=O)(=O)N(C)c4cccc(Cl)c4)cc32)c(C)c1C(=O)N1CCN(C)CC1` has neurite formation score of 5.04

* * *

system: Neuro-2a; experiment: neurite formation score, plate-normalized to DMSO control mean 5.04 (score (0-8 scale)); higher = more or longer neurites; conditions: 1 µM
Where a name gives a salt, the structure may show the parent alone.
Classification field: enter MET for neurite formation score values not below 5, NOT MET for values below it.

Use the examples below as a reference point.
Cc1cnc(Nc2ccc(OCCN3CCCC3)cc2)nc1Nc1cccc(S(=O)(=O)NC(C)(C)C)c1    NOT MET
Cc1cc(Nc2cc(N3CCN(C)CC3)nc(/C=C/c3ccccc3)n2)n[nH]1 [ENMD-2076 L-(+)-Tartaric acid]    NOT MET
CCN1CCN(c2ccc(Nc3cc(N(C)C(=O)Nc4c(Cl)c(OC)cc(OC)c4Cl)ncn3)cc2)CC1    NOT MET
Cc1ccc(Nc2nccc(N(C)c3ccc4c(C)n(C)nc4c3)n2)cc1S(N)(=O)=O    NOT MET
O=C(O)[C@]1(Cc2cccc(Nc3nccs3)n2)CC[C@@H](Oc2cccc(Cl)c2F)CC1    NOT MET
NC(=O)c1cnc(N[C@@H]2CCCC[C@@H]2N)nc1Nc1cccc(-n2nccn2)c1    NOT MET
CNC(=O)c1cc(Oc2ccc(NC(=O)Nc3ccc(Cl)c(C(F)(F)F)c3)c(F)c2)ccn1 [Regorafenib monohydrate]    NOT MET
NC1(C(=O)N[C@@H](CCO)c2ccc(Cl)cc2)CCN(c2ncnc3[nH]ccc23)CC1    MET

Please indicate if the recorded neurite formation score for `O=C(O)c1ccc(Nc2ncc3c(n2)-c2ccc(Cl)cc2C(c2c(F)cccc2F)=NC3)cc1` meets or exceeds 5. NOT MET

Could you verify whether the entry `Cc1cc(CN2CCN(c3c(Br)cnc4nc(-c5ccc(N6CCN(C)CC6)cc5)[nH]c34)CC2)no1` shows neurite formation score of no less than 5? NOT MET

I'd appreciate it if you could say whether `CS(=O)(=O)N1CCC(NC(=O)c2[nH]ncc2NC(=O)c2c(Cl)cccc2Cl)CC1` has neurite formation score at least equal to 5. NOT MET

Does the molecule `CC(C)(C)Cn1c(N)nc2ccc(-c3[nH]c(C(C)(C)C)nc3-c3ccc(F)cc3)nc21` have recorded neurite formation score that is 5 or more? NOT MET

Is neurite formation score at least 5? Consider `COc1cc2ncnc(Oc3cccc(NC(=O)Nc4cc(C(C)(C)C(F)(F)F)on4)c3)c2cc1OC` MET

// inclusive: neurite formation score at least 5? input: `O=C(NOCC1CC1)c1ccc(F)c(F)c1Nc1ccc(I)cc1Cl` NOT MET

Could you verify whether the entry `CCN1CCN(Cc2ccc(-c3cc4c(N[C@H](C)c5ccccc5)ncnc4[nH]3)cc2)CC1` shows neurite formation score of no less than 5? NOT MET

Threshold query (neurite formation score >= 5) on `CCNC(=O)Nc1ccc(-c2nc3c(c(N4CCOC[C@@H]4C)n2)CCN(C2COC2)C3)cc1` NOT MET

Quick check, neurite formation score >= 5? `COc1cc(N2CCC(N3CCN(C)CC3)CC2)ccc1Nc1ncnc(Nc2ccccc2S(=O)(=O)C(C)C)n1` MET

Is neurite formation score at least 5? Consider N=C(N)NC(=N)NCCc1ccccc1 [Phenformin HCl] NOT MET

Can `CC[C@@H]1C(=O)N(C)c2cnc(Nc3ccc(C(=O)N[C@H]4CC[C@H](N5CCN(CC6CC6)CC5)CC4)cc3OC)nc2N1C(C)C` be said to have neurite formation score at or above 5? MET

Hi team, for CN1CCN(C2CCN(C(=O)Nc3cc(Oc4ccc(NC(=O)C5(C(=O)Nc6ccc(F)cc6)CC5)c(F)c4)ccn3)CC2)CC1 [Golvatinib (E7050)] , is the recorded neurite formation score at or above 5? NOT MET

Check if neurite formation score >= 5 (inclusive). Item: `COc1cc2ncnc(Nc3cccc(Br)c3)c2cc1OC` NOT MET

Is neurite formation score for `Cc1cnc(Nc2ccc(N3CCN(C)CC3)cc2)nc1Nc1cccc(S(=O)(=O)NC(C)(C)C)c1` at or above 5? NOT MET

Decide: is the reported value of neurite formation score for CCN(CC)CCNC(=O)c1c(C)[nH]c(/C=C2\C(=O)Nc3ccc(F)cc32)c1C [Sunitinib] equal to or greater than 5? MET

Reported neurite formation score at or above 5? `CCn1cc(-c2ccnc3[nH]c(-c4cccc(CN(C)C)c4)cc23)c(-c2ccc(NC(=O)N(C)C)cc2)n1` NOT MET

Textbook exercise: given the entry `NCC(=O)Nc1ccc(-n2nc(C(F)(F)F)cc2-c2ccc3c(ccc4ccccc43)c2)cc1` , state whether its neurite formation score is greater than or equal to 5. MET

Check the entry `CCCCOc1c(C(=O)c2c(F)cc(C)cc2F)c[nH]c2nncc1-2` : does neurite formation score equal or exceed 5? MET
